system: Plasmodium falciparum Sir2 (PF13_0152, Sir2A); assay: pfSir2 binders on small-molecule microarrays, primary screen, biochemical, small-molecule microarray, 635 nm fluorescence (AID 1098); settings: small-molecule microarray binding, fluorescence 635 nm; higher = more signal;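 also: score merges spot fluorescence intensity with its signal-to-noise ratio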
Reported Endpoint: composite z-score
// no unit string in output, number only

Solved entries:
>  <Molecule>
COCCOC(=O)N1C(=O)[C@@]2(c3cc(C#CCNC(N)=O)ccc31)[C@H](c1ccc(O)cc1)N1[C@H](c3ccccc3)[C@H](c3ccccc3)OC(=O)[C@H]1[C@@H]2C(=O)Nc1nc2ccccc2s1

>  <composite z-score>
0.809

$$$$
>  <Molecule>
O=C1C2C=CC(C(O)c3cccs3)N(Nc3ccccc3F)C2C(=O)N1c1ccccc1 (centres undefined)

>  <composite z-score>
0.87

$$$$
>  <Molecule>
CCC[C@@H]1C=C(C(=O)O)[C@H](c2ccc(C)cc2)N1S(=O)(=O)c1ccc(C)cc1

>  <composite z-score>
0.706

$$$$
>  <Molecule>
[N-]=[N+]=Nc1ccccc1[C@H]1OC(c2ccc(OCCCO)cc2)=N[C@@]1(CCS(=O)(=O)c1ccccc1)C(=O)O

>  <composite z-score>
1.31

$$$$
>  <Molecule>
CC(C)(C)OC(=O)CC[C@@]1(C(=O)NCCN2CCOCC2)N=C(c2ccc(OCCCO)cc2)O[C@@H]1c1ccccc1

>  <composite z-score>
1.48

$$$$
>  <Molecule>
C=CC[C@@]1(C(=O)NCC(O)CO)N=C(c2ccc(OCCCO)cc2)O[C@@H]1c1ccccc1N=[N+]=[N-] (some centres undefined)

>  <composite z-score>
0.663

$$$$
>  <Molecule>
CCOC(=O)C[C@H]1[C@H](OC(=O)c2ccccc2-c2ccccc2)[C@@H](NC(=O)Cc2ccc(OC)cc2)c2cc(OCCCO)ccc2N1C(=O)c1ccccc1

>  <composite z-score>
-0.394

$$$$
>  <Molecule>
C=C(COC)C(=O)CC[C@H](OC(C)=O)c1cccc(OCCO)c1

>  <composite z-score>
-0.443

$$$$

[Q] // query composite z-score value for entry C=C(CCCC)/C(=C/C[C@H](OC(C)=O)c1ccc(CO)o1)c1cnc2ccccc2c1
[A] 1.11
